Consider the following molecules and their measured DPX2 Viability @ 25 μM readings.
system: DPX2 cells; conditions: human
recorded metric: DPX2 Viability @ 25 μM (%)

molecule	recorded metric	recorded measurement
CO[C@H]1/C=C/O[C@@]2(C)Oc3c(C)c(O)c4c(=O)c(c5oc6cccc(OCc7cccc(CN8CCN(C(C)=O)CC8)c7)c6nc-5c4c3C2=O)NC(=O)/C(C)=C\C=C\[C@H](C)[C@H](O)[C@@H](C)[C@@H](O)[C@@H](C)[C@H](OC(C)=O)[C@@H]1C [Compound 11c]	DPX2 Viability @ 25 μM	70
CO[C@H]1/C=C/O[C@@]2(C)Oc3c(C)c(O)c4c(=O)c(c5oc6cc(N7CCN(CC(C)C)CC7)cc(OCc7cccc(CN8CCN(C(=O)Cn9ccnc9)CC8)c7)c6nc-5c4c3C2=O)NC(=O)/C(C)=C\C=C\[C@H](C)[C@H](O)[C@@H](C)[C@@H](O)[C@@H](C)[C@H](OC(C)=O)[C@@H]1C [Compound 12c]	DPX2 Viability @ 25 μM	95
CCC(=O)N1CCN(Cc2cccc(COc3cccc4oc5c6c(=O)c7c(O)c(C)c8c(c7c-5nc34)C(=O)[C@@](C)(O/C=C/[C@H](OC)[C@@H](C)[C@@H](OC(C)=O)[C@H](C)[C@H](O)[C@H](C)[C@@H](O)[C@@H](C)/C=C/C=C(/C)C(=O)N6)O8)c2)CC1 [Compound 11d]	DPX2 Viability @ 25 μM	33
CO[C@H]1/C=C/O[C@@]2(C)Oc3c(C)c(O)c4c(=O)c(c5oc6cc(N7CCN(CC(C)C)CC7)cc(OCc7ccc(CN8CCOCC8)cc7)c6nc-5c4c3C2=O)NC(=O)/C(C)=C\C=C\[C@H](C)[C@H](O)[C@@H](C)[C@@H](O)[C@@H](C)[C@H](OC(C)=O)[C@@H]1C [Compound 17e]	DPX2 Viability @ 25 μM	95
CO[C@H]1/C=C/O[C@@]2(C)Oc3c(C)c(O)c4c(=O)c(c5oc6cc(N7CCN(CC(C)C)CC7)cc(OCc7ccc(CN8CCNCC8)cc7)c6nc-5c4c3C2=O)NC(=O)/C(C)=C\C=C\[C@H](C)[C@H](O)[C@@H](C)[C@@H](O)[C@@H](C)[C@H](OC(C)=O)[C@@H]1C [Compound 17b]	DPX2 Viability @ 25 μM	45
CO[C@H]1/C=C/O[C@@]2(C)Oc3c(C)c(O)c4c(=O)c(c5oc6cc(N7CCN(CCCCCCO[C@@H]8COc9nc([N+](=O)[O-])cn9C8)CC7)cc(C)c6nc-5c4c3C2=O)NC(=O)/C(C)=C\C=C\[C@H](C)[C@H](O)[C@@H](C)[C@@H](O)[C@@H](C)[C@H](OC(C)=O)[C@@H]1C [Compound 29e]	DPX2 Viability @ 25 μM	99
CO[C@H]1/C=C/O[C@@]2(C)Oc3c(C)c(O)c4c(=O)c(c5oc6cc(N7CCC(C(=O)O)CC7)cc(OCc7ccc(CN8CCN(C)CC8)cc7)c6nc-5c4c3C2=O)NC(=O)/C(C)=C\C=C\[C@H](C)[C@H](O)[C@@H](C)[C@@H](O)[C@@H](C)[C@H](OC(C)=O)[C@@H]1C [Compound 17q]	DPX2 Viability @ 25 μM	98

---

tested on: MTB H37Rv ATCC 27294

compound	value unit	relation qualifier	MIC
CO[C@H]1/C=C/O[C@@]2(C)Oc3c(C)c(O)c4c(=O)c(c5oc6cccc(OCCCCN7CCOCC7)c6nc-5c4c3C2=O)NC(=O)/C(C)=C\C=C\[C@H](C)[C@H](O)[C@@H](C)[C@@H](O)[C@@H](C)[C@H](OC(C)=O)[C@@H]1C [Compound 5b]	µM	=	0.021
CO[C@H]1/C=C/O[C@@]2(C)Oc3c(C)c(O)c4c(=O)c(c5oc6cccc(OCc7cccc(CN8CCN(C(=O)Cn9ccnc9)CC8)c7)c6nc-5c4c3C2=O)NC(=O)/C(C)=C\C=C\[C@H](C)[C@H](O)[C@@H](C)[C@@H](O)[C@@H](C)[C@H](OC(C)=O)[C@@H]1C [Compound 11e]	µM	=	0.048
CO[C@H]1/C=C/O[C@@]2(C)Oc3c(C)c(O)c4c(=O)c(c5oc6cc(N7CCN(CC(C)C)CC7)cc(OCCCCN7CCOCC7)c6nc-5c4c3C2=O)NC(=O)/C(C)=C\C=C\[C@H](C)[C@H](O)[C@@H](C)[C@@H](O)[C@@H](C)[C@H](OC(C)=O)[C@@H]1C [Compound 6a]	µM	=	0.092
CO[C@H]1/C=C/O[C@@]2(C)Oc3c(C)c(O)c4c(=O)c(c5oc6cc(N7CCS(=O)(=O)CC7)cc(OCc7ccc(CN8CCOCC8)cc7)c6nc-5c4c3C2=O)NC(=O)/C(C)=C\C=C\[C@H](C)[C@H](O)[C@@H](C)[C@@H](O)[C@@H](C)[C@H](OC(C)=O)[C@@H]1C [Compound 17j]	µM	>	0.01
CO[C@H]1/C=C/O[C@@]2(C)Oc3c(C)c(O)c4c(=O)c(c5oc6cc(N7CCN(CC(C)C)CC7)cc(OCCCCN7CCN(CCn8ccnc8)CC7)c6nc-5c4c3C2=O)NC(=O)/C(C)=C\C=C\[C@H](C)[C@H](O)[C@@H](C)[C@@H](O)[C@@H](C)[C@H](OC(C)=O)[C@@H]1C [Compound 6b]	µM	=	0.021
CO[C@H]1/C=C/O[C@@]2(C)Oc3c(C)c(O)c4c(=O)c(c5oc6cccc(OCCCCN7CCN(C(=O)CN8CCOCC8)CC7)c6nc-5c4c3C2=O)NC(=O)/C(C)=C\C=C\[C@H](C)[C@H](O)[C@@H](C)[C@@H](O)[C@@H](C)[C@H](OC(C)=O)[C@@H]1C [Compound 5e]	µM	=	0.082
CO[C@H]1/C=C/O[C@@]2(C)Oc3c(C)c(O)c4c(=O)c(c5oc6cc(N7CCN(CC(C)C)CC7)cc(OCc7ccc(CN8CCOCC8)cc7)c6nc-5c4c3C2=O)NC(=O)/C(C)=C\C=C\[C@H](C)[C@H](O)[C@@H](C)[C@@H](O)[C@@H](C)[C@H](OC(C)=O)[C@@H]1C [Compound 17e]	µM	=	0.005

Origin of the recorded values: patent US20250188092A1
